System: UniProt:Q9XTA2 | Read-out: pIC50
Sequence (Q9XTA2 whole entry): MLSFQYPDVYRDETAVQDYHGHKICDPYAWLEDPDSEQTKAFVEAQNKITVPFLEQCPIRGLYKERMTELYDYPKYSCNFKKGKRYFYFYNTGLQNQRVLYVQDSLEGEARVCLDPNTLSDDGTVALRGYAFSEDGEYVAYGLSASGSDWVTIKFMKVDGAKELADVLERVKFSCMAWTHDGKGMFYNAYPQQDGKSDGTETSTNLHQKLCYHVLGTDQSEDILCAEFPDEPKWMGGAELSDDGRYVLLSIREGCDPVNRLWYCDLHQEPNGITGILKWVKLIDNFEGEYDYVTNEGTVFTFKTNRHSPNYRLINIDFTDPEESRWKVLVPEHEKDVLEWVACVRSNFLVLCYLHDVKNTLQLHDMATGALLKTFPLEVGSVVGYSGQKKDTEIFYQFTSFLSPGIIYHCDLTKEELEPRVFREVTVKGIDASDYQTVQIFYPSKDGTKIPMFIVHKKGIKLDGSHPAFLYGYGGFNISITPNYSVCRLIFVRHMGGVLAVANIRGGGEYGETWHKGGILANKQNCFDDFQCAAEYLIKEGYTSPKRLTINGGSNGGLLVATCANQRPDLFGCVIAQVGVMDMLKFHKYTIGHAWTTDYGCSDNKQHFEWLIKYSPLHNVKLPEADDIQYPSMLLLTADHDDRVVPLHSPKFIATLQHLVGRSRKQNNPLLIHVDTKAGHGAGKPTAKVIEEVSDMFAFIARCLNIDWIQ
Square brackets hold non-standard residues; d marks the D form. Peptide text beside a SMILES is read from it. * marks the point of attachment. Thz = O=C(O)[C@@H]1CSCN1; Cbz = O=C(OCc1ccccc1)*
pIC50 here is simply -log10 of the concentration when that concentration is written in mol/L.

Which value of pIC50 has been reported for COC(=O)[C@@H]1CSCN1C(=O)[C@@H]1CSCN1C(=O)OCc1ccccc1 [Compound G] (Cbz-[Thz]-[Thz]-OMe) in the records?
6.68

Try this compound next: O=C([C@@H]1CSCN1C(=O)Cc1ccccc1)N1CCSC1
7.20

Try this compound next: O=C([C@@H]1CSCN1C(=O)Cc1ccccc1)N1CCCC1
6.18

Try this compound next: O=C([C@@H]1CSCN1C(=O)C=Cc1ccccc1)N1CCCC1
5.34

Try this compound next: O=C([C@@H]1CSCN1C(=O)OCc1ccccc1)N1CCSC1
9.59

Try this compound next: O=C([C@@H]1CSCN1C(=O)CCc1ccccc1)N1CCSC1
6.40

Try this compound next: O=C([C@@H]1CSCN1C(=O)C=Cc1ccccc1)N1CCSC1
5.49

Try this compound next: COC(=O)[C@@H]1CCCN1C(=O)[C@@H]1CSCN1C(=O)OCc1ccccc1 [Compound B] (Cbz-[Thz]-Pro-OMe)
4.14

Try this compound next: O=C([C@@H]1CSCN1C(=O)OCc1ccccc1)N1CCSCC1
3.64

Try this compound next: O=C([C@@H]1CSCN1C(=O)c1ccncc1)N1CCSC1
5.89

Provenance of the data: patent US4857524A
